Measured log10 IC50 of individual entries
Study system: Lysosomal acid glucosylceramidase (Homo sapiens, UniProt P04062)
Sequence (P04062 whole entry): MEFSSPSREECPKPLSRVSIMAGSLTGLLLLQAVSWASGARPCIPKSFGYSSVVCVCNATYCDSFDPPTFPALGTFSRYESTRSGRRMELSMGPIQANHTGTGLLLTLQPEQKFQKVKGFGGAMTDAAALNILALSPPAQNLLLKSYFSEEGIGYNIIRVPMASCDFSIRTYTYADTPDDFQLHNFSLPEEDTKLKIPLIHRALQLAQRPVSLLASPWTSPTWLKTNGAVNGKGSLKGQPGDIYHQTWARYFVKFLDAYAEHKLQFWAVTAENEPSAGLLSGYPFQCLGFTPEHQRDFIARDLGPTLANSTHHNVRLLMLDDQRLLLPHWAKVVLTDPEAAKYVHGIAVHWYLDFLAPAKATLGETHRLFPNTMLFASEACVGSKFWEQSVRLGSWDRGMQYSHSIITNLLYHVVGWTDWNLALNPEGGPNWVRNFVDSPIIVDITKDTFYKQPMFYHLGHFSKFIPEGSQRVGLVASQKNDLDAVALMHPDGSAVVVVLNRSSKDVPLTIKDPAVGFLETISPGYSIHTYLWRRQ
Property label: log10 IC50 (log10 of the value in µM)

| Compound | Study system | log10 IC50 |
| --- | --- | --- |
| COc1ccc(C(F)(F)F)cc1Nc1nc(NCCO)nc(N2CCCC2)n1 | Lysosomal acid glucosylceramidase (Homo sapiens, UniProt P04062) | 0.42 |
| COc1ccccc1Nc1nc(NCC(C)O)nc(N2CCCC2)n1 (centres undefined) | Lysosomal acid glucosylceramidase (Homo sapiens, UniProt P04062) | 1.32 |
| COc1ccc(Cl)cc1Nc1nc(NCCO)nc(N2CCCCC2)n1 | Lysosomal acid glucosylceramidase (Homo sapiens, UniProt P04062) | 1.49 |
| CC(C)(C)Oc1ccc(Cl)cc1Nc1nc(NCCO)nc(N2CCCC2)n1 | Lysosomal acid glucosylceramidase (Homo sapiens, UniProt P04062) | 0.02 |
| COc1ccccc1Nc1nc(NCCO)nc(N2CCC(F)(F)C2)n1 | Lysosomal acid glucosylceramidase (Homo sapiens, UniProt P04062) | 0.89 |
| COc1ccc(Nc2nc(NCCO)nc(N3CCCC3)n2)c(OC)c1 | Lysosomal acid glucosylceramidase (Homo sapiens, UniProt P04062) | 0.69 |
| OCCNc1nc(Nc2ccccc2OCc2ccccc2)nc(N2CCCC2)n1 | Lysosomal acid glucosylceramidase (Homo sapiens, UniProt P04062) | 1.50 |
| COc1ccccc1Nc1nc(NCCO)nc(NCc2ccccc2)n1 | Lysosomal acid glucosylceramidase (Homo sapiens, UniProt P04062) | 1.27 |
| OCCNc1nc(Nc2cccc(Cl)c2)nc(N2CCCC2)n1 | Lysosomal acid glucosylceramidase (Homo sapiens, UniProt P04062) | 0.83 |
| CCOc1ccccc1Nc1nc(NCCO)nc(N2CCCC2)n1 | Lysosomal acid glucosylceramidase (Homo sapiens, UniProt P04062) | -0.11 |
| OCCNc1nc(Nc2ccccc2Cl)nc(N2CCCC2)n1 | Lysosomal acid glucosylceramidase (Homo sapiens, UniProt P04062) | 1.46 |
| CCCCNc1nc(Nc2cc(Cl)ccc2OC)nc(N2CCCC2)n1 | Lysosomal acid glucosylceramidase (Homo sapiens, UniProt P04062) | 0.89 |
| COc1ccc(OC)c(Nc2nc(NCCO)nc(N3CCCC3)n2)c1 | Lysosomal acid glucosylceramidase (Homo sapiens, UniProt P04062) | 0.18 |
| CCOc1ccc(Cl)cc1Nc1nc(NCCO)nc(N2CCCC2)n1 | Lysosomal acid glucosylceramidase (Homo sapiens, UniProt P04062) | -0.02 |
